system: Aspergillus ochraceus; test: Antimicrobial activity against Aspergillus ochraceus ATCC 12066 by serial dilution technique; format: functional
METRIC: MIC (µM)
One number for each entry, in µM.

Guide cases for MIC, answers given:
{"COMPOUND": "Clc1ccc(COC(Cn2ccnc2)c2ccc(Cl)cc2Cl)c(Cl)c1 (stereo unspecified)", "MIC / µM": 3}
{"COMPOUND": "C[C@@H]1C(=O)O[C@H]2[C@H]1[C@@H](O)C[C@]1(C)[C@@H]2[C@@H](C=O)CC[C@H]1O", "MIC / µM": 0.3}
{"COMPOUND": "C/C1=C\\CC/C(CO)=C/[C@H]2OC(=O)[C@@H](C)[C@@H]2[C@@H](O)C1", "MIC / µM": 0.7}
{"COMPOUND": "C=C[C@]1(C)C[C@H](O)[C@@H]2[C@H](OC(=O)[C@H]2C)[C@H]1C(=C)CO", "MIC / µM": 0.7}
{"COMPOUND": "C[C@@H]1C(=O)O[C@@H]2C3[C@H](C=O)CCC[C@]3(C)C[C@H](O)[C@@H]12 (stereo partly specified)", "MIC / µM": 0.4}

# input for lookup
(Q) Consider the compound shown here: C=C[C@]1(C)C[C@H](OC(=O)C(=C)CCO)[C@@H]2[C@H](OC(=O)[C@H]2C)[C@H]1C(=C)CO What is its recorded MIC?
(A) 0.2
